Experiment: Tumor uptake and tissue distribution in mice bearing SJSA-1 xenografts
Type: in vivo, athymic mice
Settings: athymic, mouse, kidneys, iv, 166.5 kBq, total radioactivity
measured metric: tissue uptake at 6 h (%ID/g)
Quick reminder: number only, in %ID/g, skip the unit.

-- ask Look up tissue uptake at 6 h for this molecule: CC(=O)N[C@@H](CCCCNC(=O)c1cccc(I)c1)C(=O)NCCCCCC(=O)N[C@H](C(=O)N[C@@H](CO)C(=O)N[C@@H](Cc1ccccc1)C(=O)N[C@]1(C)CCCCCCC=CCCC[C@@](C)(C(=O)N[C@@H](CCC(=O)O)C(=O)N[C@@H](CC(N)=O)C(=O)N[C@@H](Cc2ccccc2)C(N)=O)NC(=O)[C@H](CC(C)C)NC(=O)[C@H](CC(C)C)NC(=O)[C@H](C)NC(=O)[C@H](Cc2c[nH]c3ccccc23)NC(=O)[C@H](Cc2ccc(O)cc2)NC(=O)[C@H](CCC(=O)O)NC1=O)[C@@H](C)O [[^125I]SIB-VIP116]
-- reply 2.5

====

Experiment: Tumor uptake and tissue distribution in mice bearing SJSA-1 xenografts
Type: in vivo, athymic mice
Conditions: athymic, mouse, lungs, iv, 166.5 kBq, total radioactivity
measured metric: tissue uptake at 24 h (%ID/g)
Quick reminder: number only, in %ID/g, skip the unit.

-- ask Look up tissue uptake at 24 h for this compound: CC(=O)N[C@@H](CCCCNC(=O)c1cccc(I)c1)C(=O)NCCCCCC(=O)N[C@H](C(=O)N[C@@H](CO)C(=O)N[C@@H](Cc1ccccc1)C(=O)N[C@]1(C)CCCCCCC=CCCC[C@@](C)(C(=O)N[C@@H](CCC(=O)O)C(=O)N[C@@H](CC(N)=O)C(=O)N[C@@H](Cc2ccccc2)C(N)=O)NC(=O)[C@H](CC(C)C)NC(=O)[C@H](CC(C)C)NC(=O)[C@H](C)NC(=O)[C@H](Cc2c[nH]c3ccccc23)NC(=O)[C@H](Cc2ccc(O)cc2)NC(=O)[C@H](CCC(=O)O)NC1=O)[C@@H](C)O [[^125I]SIB-VIP116]
-- reply 0.33

====

Assay: Tumor uptake and tissue distribution in mice bearing SJSA-1 xenografts
Assay type: in vivo, athymic mice
Settings: athymic, mouse, bone, iv, 166.5 kBq, total radioactivity
measured metric: tissue uptake at 6 h

-- ask Look up tissue uptake at 6 h for this compound: CC(=O)N[C@@H](CCCCNC(=O)c1cccc(I)c1)C(=O)NCCCCCC(=O)N[C@H](C(=O)N[C@@H](CO)C(=O)N[C@@H](Cc1ccccc1)C(=O)N[C@]1(C)CCCCCCC=CCCC[C@@](C)(C(=O)N[C@@H](CCC(=O)O)C(=O)N[C@@H](CC(N)=O)C(=O)N[C@@H](Cc2ccccc2)C(N)=O)NC(=O)[C@H](CC(C)C)NC(=O)[C@H](CC(C)C)NC(=O)[C@H](C)NC(=O)[C@H](Cc2c[nH]c3ccccc23)NC(=O)[C@H](Cc2ccc(O)cc2)NC(=O)[C@H](CCC(=O)O)NC1=O)[C@@H](C)O [[^125I]SIB-VIP116]
-- reply 0.29 %ID/g

====

Experiment: Tumor uptake and tissue distribution in mice bearing SJSA-1 xenografts
Assay type: in vivo, athymic mice
Conditions: athymic, mouse, thyroid, iv, 166.5 kBq, total radioactivity
measured metric: tissue uptake at 2 h (%ID/g)
Quick reminder: number only, in %ID/g, skip the unit.

-- ask Look up tissue uptake at 2 h for this molecule: CC(=O)N[C@@H](CCCCNC(=O)c1cccc(I)c1)C(=O)NCCCCCC(=O)N[C@H](C(=O)N[C@@H](CO)C(=O)N[C@@H](Cc1ccccc1)C(=O)N[C@]1(C)CCCCCCC=CCCC[C@@](C)(C(=O)N[C@@H](CCC(=O)O)C(=O)N[C@@H](CC(N)=O)C(=O)N[C@@H](Cc2ccccc2)C(N)=O)NC(=O)[C@H](CC(C)C)NC(=O)[C@H](CC(C)C)NC(=O)[C@H](C)NC(=O)[C@H](Cc2c[nH]c3ccccc23)NC(=O)[C@H](Cc2ccc(O)cc2)NC(=O)[C@H](CCC(=O)O)NC1=O)[C@@H](C)O [[^125I]SIB-VIP116]
-- reply 1.14
